src = patent US20200207841A1

Measured pKd, listed per entry for reference.
target: T1, EDIII-DV3 (Dengue virus serotype 3 (DV3), UniProt Q6YMS3 579-671)
T1 construct: also called EDIII of DV3; EDIII-DVIII
T1 sequence (Q6YMS3 579-671 limits assumed): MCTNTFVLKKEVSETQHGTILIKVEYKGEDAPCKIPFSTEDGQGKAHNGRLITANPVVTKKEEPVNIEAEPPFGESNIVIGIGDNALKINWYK
When answering, recall that pKd equals minus log10 of the concentration in mol/L, and write that number alone.

q: Looking for the measured pKd of VH_S26_del (antibody, V domains shown) VH: VKLLEQSGAELVKPGASVRLSCTAGFNIKDTYMSWVKQRPEQGLEWIGRIDPENGDTKYDPKFQGKATITADTSSNTAYLHLSSLTSGDTAVYYCSRGWEGFAYWGQGTLVTVSA VL: ELVMTQTPASLAVSLGQRATISCRASENVDKYGNSFMHWYQQKAGQPPKLLIYRASELQWGIPARFSGSGSRTDFTLTINPVEADDVATYFCQRSNEVPWTFGGGTKLEIKR , can you help?
a: 8.59

Proceeding to the next binder to report its pKd.
q: Looking for the measured pKd of VH_A25_del (antibody, V domains shown, also called 4E5-del-25; copies: 2 + 2) VH: VKLLEQSGAELVKPGASVRLSCTSGFNIKDTYMSWVKQRPEQGLEWIGRIDPENGDTKYDPKFQGKATITADTSSNTAYLHLSSLTSGDTAVYYCSRGWEGFAYWGQGTLVTVSA VL: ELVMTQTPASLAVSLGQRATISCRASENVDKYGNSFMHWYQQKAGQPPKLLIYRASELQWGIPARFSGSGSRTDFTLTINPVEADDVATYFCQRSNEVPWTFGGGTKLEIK , can you help?
a: 8.27
